Data credit: PubChem BioAssay AID686978

ASSAY EXPLANATION: qHTS for Inhibitors of human tyrosyl-DNA phosphodiesterase 1 (TDP1): qHTS in cells in absence of CPT; note: nearly all actives have a fitted effect of over 55% in size; note: potency is the fitted concentration of half-maximal effect
RUN PARAMETERS: DT40 Tdp1-/- hTDP1 cells, no CPT, ATP luminescence, 48 h
In all, about 420,000 compounds went through this assay and about 64,000 (15%) were called active. Not shown: some 27% with an inconclusive outcome. A selection follows.
READOUT LABEL: Potency

1) Cc1cccc(NC(=O)c2ccc([N+](=O)[O-])o2)c1 | 9.2 µM (active)
2) O=C(Nc1ccc(Br)cn1)c1ccc([N+](=O)[O-])o1 | 5.17 µM (active)
3) CCN(CC(=O)NCCc1ccccc1)S(=O)(=O)c1ccccc1 | inactive
4) Cn1cnc2c1c(=O)n(Cc1ccccc1C#N)c(=O)n2C | inactive
5) O=C(NCN1CCN(CCO)CC1)c1cnccn1 | inactive
6) O=C(Cn1nnc(-c2ccccc2)n1)N/N=C/c1ccc(-c2ccc(Cl)cc2)o1 | inactive

----------
ASSAY EXPLANATION: qHTS for Inhibitors of human tyrosyl-DNA phosphodiesterase 1 (TDP1): qHTS in cells in absence of CPT; note: nearly all actives have a fitted effect of over 55% in size; note: potency is the fitted concentration of half-maximal effect
RUN PARAMETERS: DT40 Tdp1-/- hTDP1 cells, no CPT, ATP luminescence, 48 h
Out of some 420,000 compounds screened, about 64,000 (15%) were called active. Inconclusive results (about 27%) are left out. A selection follows.
READOUT LABEL: Potency

1) CCOc1ccccc1NC(=O)CCn1cnnn1 | inactive
2) O=C(O)c1ccccc1-c1ccccc1C(=O)Nc1nccs1 | inactive
3) COc1ccc(-n2c(=O)c(-c3cn(C)c4ccccc34)nc3cnc(OC)nc32)cc1 | inactive
4) COc1cccc(CNC(=O)C2CCN(S(=O)(=O)c3cccc4cccnc34)CC2)c1 | inactive
5) COc1ccc(S(=O)(=O)N(C)CC(=O)N2CCCC2)cc1 | inactive
6) COc1ccc(NC(=O)Cn2c(-c3ccc(OC)cc3)cn(-c3ccc(C)cc3)c2=O)cc1 | inactive
7) CC(=O)Nc1cccc(NC(=O)CSc2nccn2Cc2ccc(F)cc2)c1 | inactive
8) CN(C)S(=O)(=O)c1ccc(Oc2ccc(S(=O)(=O)N(C)C)cc2)cc1 | 18.4 µM (active)
9) OCCCNC(c1ccccc1)c1ccc(O)cc1 (stereo not given) | inactive
10) c1ccc(Cc2cc[n+](Cc3ccccc3)cc2)cc1 | 20.6 µM (active)
11) C[C@H](CO)N1C[C@H](C)[C@@H](CN(C)S(=O)(=O)c2ccc(F)cc2)OCc2cnnn2CCCC1=O | inactive
12) Cc1ccccc1-c1nc(C#N)c(NCc2ccco2)o1 | inactive
13) CC(C)=CCCC1(C)C=Cc2c(ccc3c2[nH]c2cc(O)c(C)cc23)O1 (stereo not given) | 16.4 µM (active)
14) O=C(CSc1nccn1-c1ccc(F)cc1)Nc1cccc2ccccc12 | 14.6 µM (active)
15) COc1ccccc1-n1ccnc1SCC(=O)NC(C)(C)C | inactive
16) CCN1CCN(c2ncnc3c2cnn3-c2ccc(C)c(C)c2)CC1 | 18.4 µM (active)
17) CCn1cc(C(=O)N[C@@H](C)C(=O)NCCO)c(=O)c2cc3c(cc21)OCO3 | inactive
18) Cc1ccc(SCC2=NNC(=O)C2)cc1 | inactive
19) CN(C)c1cc[n+](Cc2ccccc2)cc1 | 0.411 µM (active)
20) CCc1nccn1S(=O)(=O)c1cccc([N+](=O)[O-])c1 | inactive
21) COC(=O)[C@H](Cc1ccccc1)NC(=O)N1CC(C)OC(C)C1 (stereo not given in full) | inactive
22) COC(=O)c1sc2[nH]c(=S)n(N)c(=O)c2c1C | inactive
23) COc1ccc(CCN2CC(C(=O)NCCN3CCNC3=O)CCC2=O)cc1 (stereo not given) | inactive
24) CN(CCCNC(=O)CN1C(=O)CC(C)(C)S(=O)(=O)c2ccccc21)C1CCCCC1 | inactive
25) CC1OC(OCC2OC(Oc3c(-c4ccc(O)c(O)c4)oc4cc(O)cc(O)c4c3=O)C(O)C(O)C2O)[C@@H](O)C(O)C1O (stereo not given in full) | inactive
26) CCc1cc2c(N3CCN(c4nnc(CC)s4)CC3)ncnc2s1 | 8.2 µM (active)
27) COc1ccc(N(C(=O)CNC(=O)c2ccco2)C(C(=O)NCC2CCCO2)c2ccccc2)cc1Cl (stereo not given) | inactive
28) COc1ccccc1-n1c(CNC(=O)c2ccccc2)nnc1SCC(=O)Nc1nnc(C)s1 | inactive
29) COC(C[C@@H](O)C[C@@H](O)[C@H](C)OCc1ccccc1)OC | inactive
30) Nc1ccc(C(=O)OCC(=O)NC2CCCc3ccccc32)cc1[N+](=O)[O-] (stereo not given) | inactive
31) CN(C)c1ccc(CSc2ccccc2)cc1 | inactive
32) COC(=O)CSc1ncnc2c1cnn2-c1ccc(C)cc1C | inactive
33) CCOC(=O)C1CCc2nc3ccccc3c(=O)n21 (stereo not given) | inactive
34) CC(C)OCCCNC(=O)C1CC(=O)N(C2CCCCCCC2)C1 (stereo not given) | inactive
35) Cc1cccc(-n2ccnc2SCC(=O)Nc2cccc3ccccc23)c1C | 16.4 µM (active)
36) CCN(CC)C(=O)N1CCN(C(=O)c2ccc(C)cn2)CC1 | inactive
37) Fc1ccccc1OCCCCn1cncn1 | inactive
38) CCCCN(C(=O)c1ccc(C)o1)c1c(N)n(CCCC)c(=O)[nH]c1=O | inactive
39) NC(=S)NN=Cc1ccc(OC(=O)COc2cc(Cl)c(Cl)cc2Cl)cn1 | 5.8 µM (active)
40) O=C(Nc1ccccc1F)C1C2C=CC3(O2)C1C(=O)N(c1cccnc1)C3C(=O)NC1CCCCC1 (stereo not given) | inactive
41) CC(C)CC(=O)Nc1cc(C(F)(F)F)ccc1N1CCOCC1 | inactive
42) CCOC(=O)c1ccc(N2C(=O)CC(N(C)Cc3ccccc3)C2=O)cc1 (stereo not given) | inactive
43) COc1ccc(CNCCCNCc2ccc(OC)c(OC)c2)cc1OC | inactive
44) CCN(c1ncnc2c1cnn2-c1ccc(C)cc1)C1CCCCC1 | inactive
45) NC(=O)C[n+]1cccc(C(N)=O)c1 | inactive
